assay: Pharmacokinetic test on dogs; assay type: in vivo, male Beagle dogs; conditions: male, Beagle, plasma, po; dog, orally intragastric 5 mg/kg
Kind request: treat 20000 ng·h/mL as inclusive, so AUC(0-t) at 20000 ng·h/mL or higher is Yes, anything lower is No.

* O=c1[nH]cc(-c2cc([C@H]3C[C@@H]3CF)c(Cl)nn2)c(=O)[nH]1 [Compound 1] | No
* O=c1[nH]cc(-c2cc([C@@H]3C[C@H]3C(F)(F)F)c(Cl)nn2)c(=O)[nH]1 [Compound 4] | Yes
* O=c1[nH]cc(-c2cc([C@H]3C[C@@H]3COC(F)(F)F)c(Cl)nn2)c(=O)[nH]1 [Compound 11] | No
* Cc1nnc(-c2c[nH]c(=O)[nH]c2=O)cc1[C@H]1C[C@@H]1C(C)C [Reference compound 3, reference compound] | No

Here's the next entry for you.
Threshold query (AUC(0-t) >= 20000 ng·h/mL) on O=c1[nH]cc(-c2cc([C@H]3C[C@@H]3C(F)F)c(Cl)nn2)c(=O)[nH]1 [Reference compound 2, reference compound] No

* * *

test: Pharmacokinetic test on dogs; format: in vivo, male Beagle dogs; conditions: male, Beagle, plasma; dog, intravenous injection 1 mg/kg
experimental-readout: AUC(0-t) (ng·h/mL)
Value expressed in ng·h/mL; do not type the unit.

Known results for compounds:
* O=c1[nH]cc(-c2cc([C@H]3C[C@@H]3C(F)F)c(Cl)nn2)c(=O)[nH]1 [Reference compound 2, reference compound] | 1560
* O=c1[nH]cc(-c2cc([C@H]3C[C@@H]3CF)c(Cl)nn2)c(=O)[nH]1 | 1460
* Cc1nnc(-c2c[nH]c(=O)[nH]c2=O)cc1[C@H]1C[C@@H]1C(C)C [Reference compound 3, reference compound] | 512
* O=c1[nH]cc(-c2cc([C@H]3C[C@@H]3COC(F)(F)F)c(Cl)nn2)c(=O)[nH]1 | 2100

Next compound, AUC(0-t) to be filled in.
// O=c1[nH]cc(-c2cc([C@@H]3C[C@H]3C(F)(F)F)c(Cl)nn2)c(=O)[nH]1 : AUC(0-t) value = 5810

* * *

# pIC50 listing for each entry below
target: Human-CD73 enzyme (Homo sapiens (Human), UniProt P21589); assay: In vitro inhibitory activity to recombinant human CD73 enzyme (ATP-GLO); details: Human-CD73 0.1 μg/mL, AMP 100 μM
Sequence (P21589 27-574): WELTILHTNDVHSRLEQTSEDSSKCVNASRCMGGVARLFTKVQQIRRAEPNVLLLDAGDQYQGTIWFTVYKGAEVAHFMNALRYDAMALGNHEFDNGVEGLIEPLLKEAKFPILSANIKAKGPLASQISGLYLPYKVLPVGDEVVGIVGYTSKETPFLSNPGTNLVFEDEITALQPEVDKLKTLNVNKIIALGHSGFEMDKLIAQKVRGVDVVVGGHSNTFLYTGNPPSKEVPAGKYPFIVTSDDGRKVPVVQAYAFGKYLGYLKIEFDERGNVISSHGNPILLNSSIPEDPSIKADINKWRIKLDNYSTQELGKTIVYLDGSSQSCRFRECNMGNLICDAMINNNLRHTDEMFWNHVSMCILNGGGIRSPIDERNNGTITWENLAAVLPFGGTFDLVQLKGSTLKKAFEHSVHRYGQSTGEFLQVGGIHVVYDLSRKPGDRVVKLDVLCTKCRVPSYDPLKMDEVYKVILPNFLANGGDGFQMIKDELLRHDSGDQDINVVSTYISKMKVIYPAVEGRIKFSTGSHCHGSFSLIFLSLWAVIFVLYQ
Field pIC50 (float): negative decimal logarithm of the concentration in molar.

Study these solved cases before continuing.
* Cc1nnc(-c2c[nH]c(=O)[nH]c2=O)cc1[C@H]1C[C@@H]1CF | 8.02
* CC(O)[C@H]1C[C@@H]1c1cc(-c2c[nH]c(=O)[nH]c2=O)nnc1Cl (stereo partly shown) | 7.61
* CC(C)(O)[C@H]1C[C@@H]1c1cc(-c2c[nH]c(=O)[nH]c2=O)nnc1Cl | 7.94

Continue with the next compound.
Record O=c1[nH]cc(-c2cc([C@H]3C[C@@H]3C(F)F)c(Cl)nn2)c(=O)[nH]1 [Reference compound 2, reference compound] , field pIC50: 7.77

* * *

assay: Pharmacokinetic test on mice; assay type: in vivo, male ICR mice; settings: male, ICR, plasma; mouse, intravenous injection 3 mg/kg; read-out: Vz
# satisfied = Vd below 2 L/kg (exclusive); not satisfied = Vd at/above 2 L/kg

Worked examples follow.
- O=c1[nH]cc(-c2cc([C@H]3C[C@@H]3C(F)(F)F)c(Cl)nn2)c(=O)[nH]1: satisfied
- Cc1nnc(-c2c[nH]c(=O)[nH]c2=O)cc1[C@H]1C[C@@H]1C(C)C [Reference compound 3, reference compound]: satisfied
- O=c1[nH]cc(-c2cc([C@H]3C[C@@H]3COC(F)(F)F)c(Cl)nn2)c(=O)[nH]1: not satisfied

# TODO verify Vd < 2 L/kg strictly for this compound: O=c1[nH]cc(-c2cc([C@@H]3C[C@H]3C(F)(F)F)c(Cl)nn2)c(=O)[nH]1 satisfied

Below 2 L/kg on Vd? Entry O=c1[nH]cc(-c2cc([C@H]3C[C@@H]3C(F)F)c(Cl)nn2)c(=O)[nH]1 [Reference compound 2, reference compound] not satisfied

For Cc1nnc(-c2c[nH]c(=O)[nH]c2=O)cc1[C@H]1C[C@@H]1C(F)F [Reference compound 1, reference compound] , is the recorded Vd below the cut-off of 2 L/kg? not satisfied

Please let me know if O=c1[nH]cc(-c2cc([C@H]3C[C@@H]3CC(F)F)c(Cl)nn2)c(=O)[nH]1 shows Vd below 2 L/kg. satisfied
